Let's look at some IC50 data for Tyrosine-protein kinase Lck (Homo sapiens) that I collected from the literature.
Metric: IC50

Cc1ccc(-c2nc(-c3cccc(NS(=O)(=O)c4c(F)cccc4F)c3F)c(-c3ccnc(N)n3)s2)nn1 ... > 1 µM
CCN(CC)CCOc1ccc(Nc2ncc3cc(-c4ccccc4Br)c(C(=O)NCCN(C)C)nc3n2)cc1 ... 0.0037 µM
CN(C)C/C=C/C(=O)Nc1cccc(-n2c(=O)n(-c3ccc(Oc4ccccc4)cc3)c3c(N)ncnc32)c1 ... 0.1 to 1 µM
COCCOc1ccc(-c2cc3cc(NC(=O)OCC(C)C)cnc3[nH]2)cc1 ... 0.1 to 9 µM
CCN(CC)CCOc1ccc(Nc2ncc3cc(-c4ccccc4Br)c(C(N)=O)nc3n2)cc1 ... 0.0125 µM
CN1CCN(c2ccc(Nc3ncc4cc(-c5c(Cl)cccc5Cl)c(C(=O)NCCNS(C)(=O)=O)nc4n3)cc2)CC1 ... 0.001 µM
C=CCNC(=O)c1cc2n(c1)CCc1c(NC(=O)c3ccccc3C)n[nH]c1-2 ... 5.14 µM
CC#CC(=O)N1C[C@H](n2nc(-c3ccc(Oc4ccc(Cl)cn4)cc3)c(C(N)=O)c2N)CCC12CC2 ... > 1 µM
CN1CCN(c2ccc3nc(-c4c(NC5CCCC5)c5cscc5[nH]c4=O)[nH]c3c2)CC1 ... ≤ 0.05 µM
Cc1ccc([C@H](C)NC(=O)Nc2ccc(-c3cnc4c(-c5cccc(N6CCN(C)CC6)c5)cnn4c3N)cc2)cc1 ... 0.034 µM
CN1CCC(Nc2c(-c3nc4ccc(N5CCOCC5)cc4[nH]3)c(=O)[nH]c3ccsc23)CC1 ... ≤ 0.05 µM
COc1cc(NC(=O)/C=C/CN(C)C2CC2)cc(-n2c(=O)n(-c3ccc(Oc4ccccc4)cc3C)c3c(N)ncnc32)c1 ... 1 to 10 µM
CCNCCOc1ccc(Nc2ncc3cc(-c4ccccc4Br)c(C#N)nc3n2)cc1 ... 0.0042 µM
CCOc1ccn2c(-c3ccnc(N)n3)c(-c3cccc(NS(=O)(=O)c4c(F)cccc4F)c3F)nc2c1 ... > 1 µM
CC(=O)N[C@@H](C)CNc1nccc(-c2sc(-c3ccccc3)nc2-c2cccc(NS(=O)(=O)c3c(F)cccc3F)c2F)n1 ... > 1 µM
CNc1nccc(-c2sc(-c3ccc(F)cn3)nc2-c2cccc(NS(=O)(=O)c3c(F)cccc3F)c2F)n1 ... > 1 µM
CC(CNC(=O)c1nc2nc(Nc3ccc(F)cc3)ncc2cc1-c1ccccc1Br)N(C)C (centres unmarked) ... 0.129 µM
O=C(Nc1n[nH]c2c1CCn1cc(C(=O)N3CCC(N4CCCCC4)CC3)cc1-2)c1ccccc1Cl ... 3.99 µM
CNc1nccc(-c2sc(N3CCCC3=O)nc2-c2cccc(NS(=O)(=O)c3c(F)ccc(C)c3F)c2F)n1 ... > 1 µM
Cc1ccc(N)cc1C(=O)Nc1cnc2[nH]c(-c3ccccc3)nc2c1 ... 0.16 µM
NC(=O)c1ccn2c(-c3ccnc(N)n3)c(-c3cccc(NS(=O)(=O)c4c(F)cccc4F)c3F)nc2c1 ... > 1 µM
CC#CC(=O)N1CCC[C@@H](n2nc(-c3ccc(C(=O)Nc4cc(CCC)ccn4)cc3)c3c(N)ncnc32)C1 ... ≤ 0.01 µM
CC(C)C(C)OC(=O)Nc1cnc2[nH]c(-c3ccccc3)nc2c1 (centres unmarked) ... 2 to 9 µM
CNc1nccc(-c2sc(N3CCCCC3)nc2-c2cccc(NS(=O)(=O)c3c(Cl)cccc3Cl)c2F)n1 ... 0.1 to 1 µM
COc1ccc(-n2c(=O)n(-c3ccc(Oc4ccccc4)cc3)c3c(N)ncnc32)cc1N(C)C(=O)/C=C/CN(C)[C@H]1CCOC1 ... 1 to 10 µM
Cc1ccnc(NC(=O)c2ccc(-c3nn([C@H]4CC[C@H](NC(=O)/C=C/CN(C)C5CC5)CC4)c4ncnc(N)c34)cc2)c1 ... > 10 µM
Nc1ncnc2c1c(-c1cc(OCC34CCC(CC3)O4)ccc1F)cn2[C@H]1C[C@@H](N2CC[S+]([O-])CC2)C1 (relative stereo) ... > 10 µM
CN(C(=O)/C=C/c1ccccn1)c1cccc(-n2c(=O)n(-c3ccc(Oc4ccccc4)cc3)c3c(N)ncnc32)c1 ... 1 to 10 µM
CN(C)C/C=C/C(=O)N1CC[C@@H](n2c(Cl)c(-c3ccc(Cl)cc3)c3c(N)ncnc32)C1 ... 0.1 to 1 µM

###

pIC50: −log10 of the molar value.
Let's look at some pIC50 data for Tyrosine-protein kinase Lck (Homo sapiens) that I collected from the literature.
Metric: pIC50

COc1cc(NS(=O)(=O)c2c(F)cccc2F)cc(-c2nc(-c3cncc(F)c3)sc2-c2ccnc(N)n2)c1 ... 6.00 to 7.00
COc1cc(-n2c(=O)n(-c3cccc(N(C)C(=O)/C=C/CN(C)C4CC4)c3)c3ncnc(N)c32)ccc1Oc1ccccc1 ... 5.00 to 6.00
O=c1[nH]c2sccc2c(N[C@H]2CCCC[C@H]2O)c1-c1nc2ccc(N3CCOCC3)cc2[nH]1 ... < 6.30
Cc1cncc(-c2nc(-c3cccc(NS(=O)(=O)c4c(F)cccc4F)c3F)c(-c3ccnc(N)n3)s2)c1 ... 6.00 to 7.00
Nc1c(N2CCN(C3CCCCC3)CC2)cc(Nc2ccc(C(=O)O)cc2)c2c1C(=O)c1ccccc1C2=O ... < 5.00
CC#CC(=O)N[C@H]1CC[C@@H](n2nc(-c3ccc(Oc4ccccc4)cc3)c3c(N)ncnc32)CC1 ... 7.66
Nc1cccc(-c2nc3cc(NC(=O)c4ccccc4Cl)cnc3[nH]2)c1 ... 5.05 to 7.40

###

Let's look at some IC50 data for Tyrosine-protein kinase Lck (Homo sapiens, UniProt P06239) that I collected from the literature.
Metric: IC50

COc1ccccc1Nc1nccc(-c2sc(-c3ccc(F)cn3)nc2-c2cccc(NS(=O)(=O)c3c(F)cccc3F)c2F)n1 ... > 1000 nM
CC(C)Nc1nccc(-c2sc(-c3cncc(F)c3)nc2-c2cccc(NS(=O)(=O)c3c(F)cccc3F)c2F)n1 ... > 1000 nM
CN(C/C=C/C(=O)N1CC[C@@H](n2nc(-c3ccc(C(=O)Nc4ccccn4)cc3)c3c(N)ncnc32)C1)C1CC1 ... 1000 to 10000 nM
O=C(NCCN1CCCC1)c1cc2n(c1)CCc1c(NC(=O)c3ccccc3Cl)n[nH]c1-2 ... 590 nM
CNc1nccc(-c2sc(-c3ccc(F)cn3)nc2-c2cccc(NS(=O)(=O)c3c(F)cc(F)cc3F)c2F)n1 ... > 1000 nM
Nc1nccc(-c2sc(-c3cncc(F)c3)nc2-c2cccc(NS(=O)(=O)c3c(F)cccc3F)c2F)n1 ... > 1000 nM
O=S(=O)(Nc1cccc(-c2nc(-c3cncc(F)c3)sc2-c2ccnc(NCCO)n2)c1F)c1c(Cl)cccc1Cl ... > 1000 nM

###

pIC50: −log10 of the molar value.
Let's look at some pIC50 data for Tyrosine-protein kinase Lck (Homo sapiens, UniProt P06239) that I collected from the literature.
Metric: pIC50

O=C(NC1CCNCC1)c1nc2nc(Nc3ccc(F)cc3)ncc2cc1-c1ccccc1Br ... 6.11
COc1cc2nccc(Oc3ccc(NC(=O)c4cc(S(C)(=O)=O)n(-c5ccc(F)cc5)n4)cc3)c2cc1OC ... 6.00 to 6.30
C=CC(=O)N[C@H]1CC[C@H](n2nc(-c3ccc(C(=O)Nc4cc(C)ccn4)cc3)c3c(N)ncnc32)CC1 ... < 5.00
CNc1nccc(-c2sc(N(C)C)nc2-c2cccc(NS(=O)(=O)c3c(F)ccc(C)c3F)c2F)n1 ... < 6.00

###

Let's look at some IC50 data for Tyrosine-protein kinase Lck (Homo sapiens, UniProt P06239) that I collected from the literature.
Metric: IC50

COCC(COC)NC(=O)c1cccc(-c2nc3cc(NC(=O)c4ccccc4Cl)cnc3[nH]2)c1 ... 40 to 9000 nM
CN1CCN(c2ccc3nc(-c4c(N)c5ccsc5[nH]c4=O)[nH]c3c2F)CC1 ... 50 to 500 nM
N#Cc1nc2nc(Nc3ccc(OCCO)cc3)ncc2cc1-c1c(Cl)cccc1Cl ... 6.4 nM
O=C(CNc1cc(Cl)cc(Cl)c1)N1CC2CC(Nc3ncnc4[nH]ccc34)C1C2 (stereo not drawn) ... > 10000 nM
C=CC(=O)N(C)c1cccc(-n2c(=O)[nH]c3cnc(Nc4ccc(OCCOC)cc4)nc32)c1 ... 1000 to 10000 nM
COc1cc(NS(=O)(=O)c2c(F)cccc2F)cc(-c2nc(-c3ccccc3)sc2-c2ccnc(N)n2)c1 ... 100 to 1000 nM
CC(C)OC(=O)Nc1cnc2nc(-c3ccccc3)[nH]c2c1 ... 100 to 9000 nM
CCN(CC)CCOc1ccc(-c2nc3cc(NC(=O)c4ccccc4Cl)cnc3[nH]2)cc1 ... 40 to 9000 nM
O=S(=O)(Nc1cccc(-c2nc(-c3cncc(F)c3)sc2-c2ccnc(NCCO)n2)c1F)c1c(F)cccc1F ... > 1000 nM
CSc1cccc(-c2nc3cc(NC(=O)c4ccccc4Cl)cnc3[nH]2)c1 ... 40 to 9000 nM
CN(C)c1ccn2c(-c3ccnc(N)n3)c(-c3cccc(NS(=O)(=O)c4c(F)cccc4F)c3F)nc2c1 ... > 1000 nM
O=C(N[C@@H]1CCCNC1)c1nc2nc(Nc3ccc(F)cc3)ncc2cc1-c1ccccc1Br ... 127 nM
CC(C)c1ccnc(NC(=O)c2ccc(-c3nn([C@@H]4CCN(C(=O)/C=C/CN(C)C5CC5)C4)c4ncnc(N)c34)cc2)c1 ... 100 to 1000 nM
CNc1nccc(-c2sc(C(C)(C)C)nc2-c2cccc(NS(=O)(=O)c3c(F)cccc3F)c2F)n1 ... > 1000 nM
COc1cc2nccc(Oc3ccc(NC(=O)c4cc(S(C)(=O)=O)n(-c5ccc(F)cc5)n4)cc3F)c2cc1OC ... 500 to 1000 nM
CN1CCN(c2ccc3nc(-c4c(N[C@H]5CCCC[C@H]5O)c5ccsc5[nH]c4=O)[nH]c3c2)CC1 ... 50 to 500 nM
COCCN(CCOC)c1ccc(-c2nc3cc(NC(=O)c4ccccc4Cl)cnc3[nH]2)cc1F ... 40 to 9000 nM
O=C(Nc1cnc2[nH]c(-c3ccccc3)nc2c1)c1cc([N+](=O)[O-])ccc1Cl ... 1000 to 9000 nM
C=CC(=O)N(C)c1ccc(-n2c(=O)n(-c3ccc(C)c(OC)c3)c3c(N)ncnc32)cc1 ... 1000 to 10000 nM
O=C(NCCO)c1nc2nc(Nc3ccc(N4CCOCC4)cc3)ncc2cc1-c1c(Cl)cccc1Cl ... 4.1 nM
CC(=O)Nc1cccc(Nc2ncc3cc(-c4ccccc4Br)c(C(=O)NCCNS(C)(=O)=O)nc3n2)c1 ... 12 nM
COCC#CC(=O)N1CC[C@@H](n2nc(-c3ccc(C(=O)Nc4ccccn4)cc3)c3c(N)ncnc32)C1 ... 10 to 100 nM
CN(C(=O)/C=C/CNC1CC1)c1cccc(-n2c(=O)n(-c3ccc(Oc4ccccc4)cc3)c3c(N)ncnc32)c1 ... 100 to 1000 nM
Nc1nccc(-c2sc(-c3cncnc3)nc2-c2cccc(NS(=O)(=O)c3c(F)cccc3F)c2F)n1 ... > 1000 nM
CC(OC(=O)Nc1cnc2[nH]c(-c3ccccc3)nc2c1)C(F)(F)F (stereo not drawn) ... 5000 to 10000 nM
O=C(NCCO)c1nc2nc(Nc3ccc(F)cc3)ncc2cc1-c1ccccc1Br ... 155 nM
Cc1ccc(NC(=O)Nc2ccc(-c3cnc4c(-c5cccc(N6CCN(C)CC6)c5)cnn4c3N)cc2)cc1 ... 15 nM
Nc1nccc(-c2sc(-c3ccc(F)cn3)nc2-c2cccc(NS(=O)(=O)c3c(Cl)cccc3Cl)c2F)n1 ... 100 to 1000 nM
Nc1ncnc2c1c(-c1ccc(Oc3ccccc3)cc1)nn2C[C@@H]1CCCN1C(=O)/C=C/CN1CCOCC1 ... 1350 nM
Cc1ccc(F)c(S(=O)(=O)Nc2cccc(-c3nc(-c4cncc(F)c4)sc3-c3ccnc(NC4CC4)n3)c2F)c1F ... > 1000 nM
